Target: T1, Secreted Protein, Acidic, Rich in Cysteines (SPARC) (UniProt P09486 18-303)
T1 construct: also called osteonectin; SPARC protein
T1 sequence (looked up): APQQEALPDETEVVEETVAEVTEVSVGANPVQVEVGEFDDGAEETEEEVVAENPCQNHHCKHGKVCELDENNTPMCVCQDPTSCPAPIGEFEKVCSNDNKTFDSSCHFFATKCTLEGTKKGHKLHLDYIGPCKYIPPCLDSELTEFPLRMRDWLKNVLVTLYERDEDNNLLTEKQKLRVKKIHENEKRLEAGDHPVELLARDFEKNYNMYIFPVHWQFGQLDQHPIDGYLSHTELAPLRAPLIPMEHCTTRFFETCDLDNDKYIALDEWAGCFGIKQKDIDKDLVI
Assay: phage ELISA on SPARC-coated wells; OD column 2 of 3
readout_name: OD
Please reply with the value in numeric form only.

Endpoint output: OD of TSYLNSGMIPAR (also called clone 63) . Value? 0.664

Would you mind doing KAYLDSIPITPR (also called clone 60) as well? 0.611

Would you mind doing AAAPLNLSMTFP (also called clone 182) as well? 0.782

Would you mind doing VTPLLKFRALSS (12-mer from the Ph.D.-12 phage library; The peptide was cloned into pFUSE-hIgG1-Fc2 and expressed as the PD 21-Fc fusion; also called peptide 21; PD 21-Fc) [PD 21] as well? 0.443
